Test system: RXF 393 renal
Assay: NCI-60 one-dose screen, 48 h (100 = growth as untreated, 0 = no growth, -100 = all killed)
Settings: 10 µM
This is part of a sample that, as a whole, favours compounds with a hit. Of some 83,000 tested, about 20% had one in any assay.
Listing: growth of selected compounds
measurement type: growth (%)

> print(dat)
                                    compound         system  measurement.type  endpoint.result
 1                           CCS(=O)(=O)CCCl  RXF 393 renal            growth              105
 2         OCc1ccc(-c2ccc(-c3ccc(CO)s3)o2)s1  RXF 393 renal            growth               57
 3  O=C1OC(=O)C2C1C1(Cl)C(Cl)=C(Cl)C2(Cl)C2C(=O)OC(=O)C21 (stereo not drawn)  RXF 393 renal            growth              100
 4   CCOC(=O)C1=C(Nc2ccc(Br)cc2)C(=O)N(CC)C1  RXF 393 renal            growth             92.9
 5       O=[N+]([O-])c1ccc(O)c(S(=O)(=O)O)c1  RXF 393 renal            growth              117
 6              CCOC(=O)c1cc2cccc(OC)c2oc1=O  RXF 393 renal            growth              122
 7                          NNc1ccccc1C(=O)O  RXF 393 renal            growth              114
 8  Nc1ccc(N=Nc2ccc(S(=O)(=O)O)cc2)c2ccccc12  RXF 393 renal            growth              101
 9                    CC(=O)Nc1c(C)cc(C)cc1C  RXF 393 renal            growth              113
10          Cc1c(O)cnc2nn(-c3ccccc3)c(=N)n12  RXF 393 renal            growth              111
11  CC1CC(O)C2C3(C)CCCC2(COC3=O)C12CCC1(CCOC1=O)O2 (stereo not drawn)  RXF 393 renal            growth              114
12                          N#CCCc1ccc(O)cc1  RXF 393 renal            growth              106
13     Clc1ccc(-c2nnc(-c3cccc4ccccc34)o2)cc1  RXF 393 renal            growth              102

* * *

Test system: UACC-62 melanoma
Assay: NCI-60 one-dose screen, 48 h
Settings: 10 µM unless noted
This is part of a sample that, as a whole, favours compounds with a hit. Of some 83,000 tested, about 20% had one in any assay. Calls of active or inactive are those of the source. The calls were made as follows: active = growth percent below 10; inactive = the rest. Where a SMILES comes first, the peptide text is derived from it. Bridges are numbered along the chain shown (N, C = ends). [ ]: non-standard residue; d: D form. The star is where a group is joined. ξ: configuration not given here. ξNMePhe(4-NMe2) = CNC(Cc1ccc(N(C)C)cc1)C(=O)O; Picolinoyl(3-OH) = O=C(c1ncccc1O)*; ξPip(4-oxo) = O=C1CCNC(C(=O)O)C1; Phg = N[CH](C(=O)O)c1ccccc1; Abu = CC[CH](N)C(=O)O
Labels: t (active), f (inactive)

molecule	class assignment
CCN(CC)C(=O)/C=C(/C)c1ccccc1	f
CN(C)C(C)(C)CC(C)(C)C	f
C/C(=C\c1cc(Cl)ccc1OCC(=O)O)[N+](=O)[O-]	f
CCC1NC(=O)C(NC(=O)c2ncccc2O)C(C)OC(=O)C(c2ccccc2)NC(=O)C2CC(=O)CCN2C(=O)C(Cc2ccc(N(C)C)cc2)N(C)C(=O)C2CCCN2C1=O (configuration not stated) (tested in a mixture with another compound) ({Picolinoyl(3-OH)}-T[Abu]P[ξNMePhe(4-NMe2)][ξPip(4-oxo)][Phg]; ester 1-C; configuration not given here)	f
NC(=O)c1ccc(N=C(N)N=C(N)N)cc1	f
COc1ncnc2c1cnn2C	f
Cc1cc(N2CCC(N3CCCC3)CC2)nc(/N=C(\N)Nc2ccc(Cl)c(Cl)c2)n1	t
O=C(CCl)Nc1ccc2c(c1)C(=O)c1ccc(NC(=O)CCl)cc1C2=O	t
CCC(C#N)(CC)c1ccccc1	f
NC(CSC(c1ccccc1)(c1ccccc1)c1ccccc1)C(=O)O (configuration not stated)	f
COc1ccccc1C1OC2=Nc3cc(C)c(C)cc3NC2C1=O (configuration not stated)	f
CCOc1ccc(Br)cc1/C=N\N=C\c1cc(Br)ccc1OCC	f
O=C(N/N=C\c1cc(Br)cc(Br)c1O)N/N=C/c1cc(Br)cc(Br)c1O	f
O=C1C=CC2=C3c4cc(O)c(O)cc4CC3(O)COC2=C1O (configuration not stated)	f
COc1cc2nc3cc([N+](=O)[O-])ccc3c(Cl)c2cc1OC	f
COc1ccccc1N=Nc1c(O)ccc2cc(S(=O)(=O)O)ccc12	f
CCN(CC)c1ccc2nc3ccc(=[N+](CC)CC)cc-3oc2c1	t
O=C(O)C(c1ccccc1)C(O)c1ccccc1 (configuration not stated)	f
CCOC(=O)C(CCC(C)C)C(=O)OCC	f
CC(C)=CC(=O)OC(=O)C=C(C)C	f
NC(=S)NN=C1CCCC1	f
Cc1nc2ccccc2c(C(=O)O)c1O	f

// provenance: PubChem BioAssay (NCI)
